assay_name: VP16 transactivation reporter inhibitors, counter-screen for LRH-1 inverse agonist project, cell-based, luminescence, high throughput (AID 651615)
test_settings: Gal4-VP16 luciferase reporter cells, at 3.6 µM
Calls of active or inactive are those of the source. Rule as the data show it: active = inhibition above about 33%; inactive = the rest.
Possible outcomes: YES (active), NO (inactive)

- Cc1cc(C(=O)COC(=O)c2ccccc2O)c(C)n1CC1CCCO1 (stereo not given): YES
- O=C(CN1C(=O)NC2(CCCC2)C1=O)NCCc1ccc(F)cc1: NO
- O=C(Nc1ccc2c(c1)OCCO2)C(c1cc2ccccc2o1)N1CCN(c2ccc(C(F)(F)F)cn2)CC1 (stereo not given): NO
- COC(=O)CC1(C(=O)OC)Oc2ccc(Br)cc2C(=O)N1c1cc(Cl)c(Cl)cc1Cl (stereo not given): NO
- C#Cc1cccc(Nc2nc(NCCOC)nc3ccsc23)c1: NO

====

experimental_system: Nuclear receptor subfamily 5 group A member 2 (Homo sapiens) (UniProt O00482)
Sequence (O00482 whole entry, looked up): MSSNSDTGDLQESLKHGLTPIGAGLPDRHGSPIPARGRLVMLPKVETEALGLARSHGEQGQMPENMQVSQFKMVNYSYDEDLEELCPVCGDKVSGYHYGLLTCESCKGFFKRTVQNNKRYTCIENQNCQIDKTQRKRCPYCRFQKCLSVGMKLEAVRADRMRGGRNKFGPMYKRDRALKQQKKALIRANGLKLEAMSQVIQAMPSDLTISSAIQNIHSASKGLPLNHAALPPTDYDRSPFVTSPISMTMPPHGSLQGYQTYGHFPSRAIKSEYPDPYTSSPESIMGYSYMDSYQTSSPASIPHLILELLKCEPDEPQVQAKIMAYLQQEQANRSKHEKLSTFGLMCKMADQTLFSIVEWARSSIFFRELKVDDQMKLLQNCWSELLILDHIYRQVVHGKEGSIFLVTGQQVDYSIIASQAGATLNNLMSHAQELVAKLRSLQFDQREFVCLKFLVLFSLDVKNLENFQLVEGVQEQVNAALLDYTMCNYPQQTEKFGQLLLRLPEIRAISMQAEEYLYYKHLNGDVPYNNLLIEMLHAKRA
assay_name: LRH-1 (NR5A2) inverse agonists, retest, confirmation, cell-based, luminescence (AID 651613);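 also: HEK293T cells co-transfected with LRH-1 and StAR promoter luciferase reporter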
test_settings: cell-based LRH-1 luciferase reporter, inverse agonism; at 3.6 µM; active compounds read high
Category scheme (inhibition): bottom end (below 50%), midrange (50% to below 70%), top end (70% or more)

* O=C(c1ccccc1)N(NC(=O)C(O)(c1ccccc1)c1ccccc1)c1cccc(F)c1 | midrange
* CC(C)(C)C(=O)N1CCN(c2ccc(NC(=O)c3ccc([N+](=O)[O-])o3)cc2)CC1 | midrange
* C/C(=N\NC(N)=S)C12CC3CC(CC(C3)C1)C2 | midrange
* NC(=O)[C@H]1CC2(CC(c3cccc(NC(=O)COc4ccc(Cl)cc4)c3)=NO2)CN1C(=O)Cc1ccc([N+](=O)[O-])cc1 (stereo not given in full) | midrange
* CCN(CC)CCn1nc2c3c(cccc3c1=O)-c1ccccc1-2 | top end
* CC1CCc2nc(NC(=O)CSc3nc4ccccc4o3)sc2C1 (stereo not given) | bottom end
* Cc1nnsc1S(=O)c1ccc(Cl)c(Cl)c1 (stereo not given) | midrange
* Cc1cc2ncn(/N=C/c3ccc([N+](=O)[O-])s3)c2cc1C | midrange
* CC(C)c1ccc(-c2nc3ccccc3s2)cc1 | bottom end
* COCCn1c(C)cc(C(=O)COC(=O)c2ccccc2Br)c1C | bottom end
* O=C(N/N=C/c1ccc([N+](=O)[O-])o1)c1ccc(O)cc1 | top end
* Cc1cc2oc(=O)cc(C)c2cc1NC(=O)CCl | midrange
* O=S(=O)(c1ccc(NC(=S)NCc2cccnc2)cc1)N1CCCCC1 | top end
* CS(=O)(=O)N1CCCC(c2nc(-c3ccc(S(=O)(=O)NCc4ccccc4)cc3)no2)C1 (stereo not given) | midrange
* COc1cccc2c1C(=O)c1c(O)c3c(c(O)c1C2=O)CC(O)(C(=O)CO)CC3OC1CC(N(C)C)C(O)C(C)O1 (stereo not given) | top end
* COCCn1c(C)cc(C2=NNC(=Nc3ccccc3)SC2)c1C | bottom end
* CCOc1ccc(-c2cc(CCCC(=O)Nc3cccc(OC)c3)no2)cc1 | bottom end
* CC(=O)c1ccc(NC(=O)CN2C(=O)NC3(CCc4ccccc43)C2=O)cc1 (stereo not given) | midrange
* CC(=O)c1c(C)[nH]c(C(=O)COc2cc(C)ccc2C(C)C)c1C | midrange
* OCCCNc1c2ccccc2nc2ccccc12 | top end
* Nc1ccc(C(=O)NN2C(=O)[C@H](Cl)C2c2ccc(Cl)cc2)cc1 (stereo not given in full) | bottom end
* Cc1ccc(NC(=O)O/N=C/c2c(C)nn(C(C)(C)C)c2C)cc1Cl | top end
* Cc1cccn2c(=O)c3cc(C(=O)NCCN4CCOCC4)c(=N)n(Cc4ccc(F)cc4)c3nc12 | top end
* OCCCNc1nccc(-c2cc(Nc3cccc(Cl)c3)ncn2)n1 | top end
* O=C(CSC1=NCCS1)N1CCN(c2ccc(Cl)cc2)CC1 | midrange
* Cc1sc2ncnc(NCC(O)c3ccc([N+](=O)[O-])cc3)c2c1C (stereo not given) | midrange
* O=C(CCl)NCCCN(C(=O)C(Cl)Cl)c1ccc([N+](=O)[O-])cc1 | midrange
* CC(=O)NC(c1ccc(C(C)C)cc1)c1ccc2cccnc2c1O (stereo not given) | top end
